Tested on: R275C/Slo1WT/beta2
Experiment: modulators of BK channel variants, profiling panel, selectivity assay, cell-based, U2OS BacMam, thallium flux, beta subunits (AID 1259406);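 note: initial slope of Thallos dye fluorescence rise after thallium is added; log ratio against the mean of 0.3% DMSO vehicle wells on the same plate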
Settings: at 30 µM
Active and inactive are the calls of the source.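 Rule for the calls: active = thallium flux through the channel raised or lowered by more than 3 SD from vehicle-only wells, actives on both sides; inactive = the rest.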
A correct response names exactly one class from 1 for active, -1 for inactive

compound	tested on	classification
FC(F)(F)c1ccc(-c2csc(C3(c4ccc(Cl)cc4Cl)CC3)n2)cc1	R275C/Slo1WT/beta2	-1
CO[C@H]1C=CO[C@@]2(C)Oc3c(C)c(O)c4c(O)c(c(C=NN5CCN(C6CCCC6)CC5)c(O)c4c3C2=O)NC(=O)C(C)=CC=C[C@H](C)[C@H](O)[C@@H](C)[C@@H](O)[C@@H](C)[C@H](OC(C)=O)[C@@H]1C	R275C/Slo1WT/beta2	-1
CCCCCc1c(C)nc(-c2ccccn2)[nH]c1=O	R275C/Slo1WT/beta2	-1
CCC[C@@H]1C[C@@H](C(=O)N[C@H]([C@@H](C)O)[C@H]2O[C@H](SC)[C@H](O)[C@@H](O)C2O)N(C)C1 (stereo partly specified)	R275C/Slo1WT/beta2	-1
CC(=O)c1sc(SCc2ccc(Cl)cc2)c2c1CC(C)(C)CC2=O	R275C/Slo1WT/beta2	-1
O=C1N=C(O)CN1N=Cc1ccc(-c2ccc([N+](=O)[O-])cc2)o1	R275C/Slo1WT/beta2	-1
CC(=O)O[C@@]12CO[C@@H]1C[C@H](O)[C@@]1(C)C(=O)[C@H](O)C3=C(C)[C@@H](OC(=O)[C@H](O)[C@@H](NC(=O)OC(C)(C)C)c4ccccc4)C[C@](O)([C@@H](OC(=O)c4ccccc4)[C@H]21)C3(C)C	R275C/Slo1WT/beta2	-1
O=C1c2cccc3c(Sc4ccccc4)ccc(c23)C(=O)N1CCc1ccccn1	R275C/Slo1WT/beta2	-1
CCCn1c(=O)c(Br)cn(-c2ccccc2C)c1=O	R275C/Slo1WT/beta2	-1
CSc1nc2cc(Oc3cccc(Cl)c3Cl)c(Cl)cc2[nH]1	R275C/Slo1WT/beta2	-1

Inquiry: State the result this test recorded for "CCC1=C[C@H]2CN(C1)Cc1c([nH]c3ccccc13)[C@@](C(=O)OC)(c1cc3c(cc1OC)N(C)[C@H]1[C@@](O)(C(=O)OC)[C@H](OC(C)=O)[C@]4(CC)C=CCN5CC[C@]31[C@@H]54)C2" .
Reply text: 1

Inquiry: Each compound tested received a call. Report the one for "COc1ccc(C(C)=NO)cc1CN1CCCC1" .
Reply text: -1

Inquiry: Recorded call for "O=C(O)c1ccccc1C(=O)NCc1ccccc1OC(F)(F)F" ?
Reply text: -1

Inquiry: Which outcome was assigned to "N=C(N)Cc1c(Cl)cccc1Cl" in this test?
Reply text: -1

Inquiry: I'd appreciate the recorded outcome for "Cn1cnc([N+](=O)[O-])c1Sc1cccs1" from this test.
Reply text: -1

Inquiry: Tell me the assay call for "CC(C)(C)NC(=O)NCCO" please.
Reply text: -1

Inquiry: So what was the verdict on "O=C1CSCC(=O)N1c1csc(C(F)(F)F)c1-c1ccccc1" in this test?
Reply text: -1

// provenance: PubChem BioAssay
